- Tested on: Sodium/Iodide Symporter (NIS), SLC5A5 (gene 6528)
- method summary: CPHEA_Stoker_NIS_Inhibition_RAIU: CPHEA's Radioactive Iodide Uptake (RAIU) Assay for Sodium/Iodide Symporter (NIS) Inhibition, Stoker and Laws Labs (AID 2283841)
Results filed as inconclusive are left out. The source made the active and inactive calls. The calls were made as follows: active = hit-call score of the fitted dose curve at least 0.9, where 1 is the maximum; inconclusive = response in the unintended direction; inactive = score below 0.9.
Assign a class; possible classes are y for active, n for inactive

Before answering, review these 5 worked examples.
CCC(CC)Nc1c([N+](=O)[O-])cc(C)c(C)c1[N+](=O)[O-] = n
O=[N+]([O-])c1cc(C(F)(F)F)c(Cl)c([N+](=O)[O-])c1Nc1ncc(C(F)(F)F)cc1Cl = y
C[Si](Cn1cncn1)(c1ccc(F)cc1)c1ccc(F)cc1 = n
CCOP(=S)(OCC)Oc1ccc([N+](=O)[O-])cc1 = n
CSc1nc(NC(C)C)nc(NC(C)C)n1 = n

Task: So what was the verdict on CCOP(=S)(Oc1cnc(C(C)(C)C)nc1)OC(C)C (centres undefined) in this test?
Output: n

Task: Note, next up: CC(C)=CC1C(C(=O)OCN2C(=O)C3=C(CCCC3)C2=O)C1(C)C (centres undefined)
Output: y

Task: Note, next up: `CCCCN(CC)c1c([N+](=O)[O-])cc(C(F)(F)F)cc1[N+](=O)[O-]`
Output: n
